// values below are reported pIC50
biological target: P2X7 (Homo sapiens, UniProt Q99572); assay: IL-1β release assay in THP-1 cells (sandwich ELISA); type: cell-based; parameters: release of mature IL-1β in the culture medium of THP-1 cells; endogenous in cells; host or cells: THP-1 cells (PMA-differentiated, LPS-primed); details: PMA, LPS primed, stimulated with 0.8 mM BzATP, mature IL-1β release, read-out: hTHP-1/IL-ib IC50
Sequence (Q99572 whole entry): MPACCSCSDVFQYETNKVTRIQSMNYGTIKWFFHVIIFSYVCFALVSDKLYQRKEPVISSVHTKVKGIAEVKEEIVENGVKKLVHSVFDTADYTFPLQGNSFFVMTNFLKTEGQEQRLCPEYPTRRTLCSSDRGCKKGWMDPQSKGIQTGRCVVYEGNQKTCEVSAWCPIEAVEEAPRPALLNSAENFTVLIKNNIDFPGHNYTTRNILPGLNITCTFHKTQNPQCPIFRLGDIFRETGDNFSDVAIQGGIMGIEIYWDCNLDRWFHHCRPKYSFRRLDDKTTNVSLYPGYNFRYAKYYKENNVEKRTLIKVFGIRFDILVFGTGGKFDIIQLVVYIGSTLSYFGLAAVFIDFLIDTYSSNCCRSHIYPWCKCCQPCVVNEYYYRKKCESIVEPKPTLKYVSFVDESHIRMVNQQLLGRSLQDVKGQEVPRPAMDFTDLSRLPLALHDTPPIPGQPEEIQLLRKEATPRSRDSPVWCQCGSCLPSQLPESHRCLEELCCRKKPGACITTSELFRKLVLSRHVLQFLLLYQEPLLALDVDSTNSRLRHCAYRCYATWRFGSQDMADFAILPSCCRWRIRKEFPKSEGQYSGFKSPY
pIC50: −log10 of the molar value.
Measurement label: pIC50

compound="O=C(NCC1CCC(F)(F)CC1)c1c(Cl)ccc2nc(C#CCO)ccc12 [Compound 19]" measurement_label=pIC50 endpoint_value="7.00 to 8.00"
compound="O=C(NCC1CCC(F)(F)CC1)c1c(Cl)ccc2nc(N3CC[C@@H](F)C3)ccc12 [Compound 33]" measurement_label=pIC50 endpoint_value="6.30 to 7.00"
compound="O=C(NCC1CCC(F)(F)CC1)c1c(Cl)ccc2nc(N3CC[C@H](CCO)C3)ccc12 [Compound 11]" measurement_label=pIC50 endpoint_value="6.30 to 7.00"
compound="COCCCOc1ccc2c(C(=O)NCC3CCC(F)(F)CC3)c(Cl)ccc2n1 [Compound 69]" measurement_label=pIC50 endpoint_value="6.30 to 7.00"
compound="NC1CCN(c2ccc3c(C(=O)NCC4CCC(F)(F)CC4)c(Cl)ccc3n2)C1 (centres unmarked) [Compound 18]" measurement_label=pIC50 endpoint_value="7.00 to 8.00"
compound="CN(CCO)c1ccc2c(C(=O)NCC3CCC(F)(F)CC3)c(Cl)ccc2n1 [Compound 73]" measurement_label=pIC50 endpoint_value="6.30 to 7.00"
compound="O=C(NCC1CCCC(F)(F)C1)c1c(Cl)ccc2nc(N3CCC(F)C3)ccc12 (centres unmarked) [Compound 39]" measurement_label=pIC50 endpoint_value="7.00 to 8.00"
compound="CN(C)[C@@H]1CCN(c2ccc3c(C(=O)NCC4(O)CCC(F)(F)CC4)c(Cl)ccc3n2)C1 [Compound 23]" measurement_label=pIC50 endpoint_value="7.00 to 8.00"
compound="O=C(NCC1CCCC(F)(F)C1)c1c(Cl)ccc2nc(N3CCC(N4CCCC4)C3)ccc12 (centres unmarked) [Compound 34]" measurement_label=pIC50 endpoint_value="7.00 to 8.00"
compound="COCCNc1ccc2c(C(=O)NCC3CCC(F)(F)CC3)c(Cl)ccc2n1 [Compound 68]" measurement_label=pIC50 endpoint_value="6.00 to 6.30"
compound="O=C(NCC1CCCC(F)(F)C1)c1c(Cl)ccc2nc(N3CC[C@H](F)C3)ccc12 (some centres unmarked) [Compound 3]" measurement_label=pIC50 endpoint_value="6.30 to 7.00"
compound="O=C(NCC1(O)CCCC(F)(F)C1)c1c(Cl)ccc2nc(N3CC[C@H](F)C3)ccc12 (some centres unmarked) [Compound 36]" measurement_label=pIC50 endpoint_value="7.00 to 8.00"
compound="O=C(NCC1CCC(F)(F)CC1)c1c(Cl)ccc2nc(N3CC[C@@H](O)C3)ccc12 [Compound 61]" measurement_label=pIC50 endpoint_value="6.30 to 7.00"
compound="O=C(NCC1CCC(F)(F)CC1)c1c(Cl)ccc2nc(N3CC[C@@H](CO)C3)ccc12 [Compound 12]" measurement_label=pIC50 endpoint_value="6.30 to 7.00"
compound="C[C@@H]1CCC[C@](O)(CNC(=O)c2c(Cl)ccc3nc(N4CC[C@H](N(C)C)C4)ccc23)C1 [Compound 4]" measurement_label=pIC50 endpoint_value="> 8.00"
compound="COCCCOc1ccc2c(C(=O)NCC3(O)CCC(F)(F)CC3)c(Cl)ccc2n1 [Compound 62]" measurement_label=pIC50 endpoint_value="6.30 to 7.00"
compound="O=C(NCC1CCCC(F)(F)C1)c1c(Cl)ccc2nc(N3CCC(CO)C3)ccc12 (centres unmarked) [Compound 35]" measurement_label=pIC50 endpoint_value="7.00 to 8.00"
